System: PPARg DBDmut IVT, anti-PPARg (DBD mutation: PPARg1 K132A/R137A, NR concentration 270 nM)
assayNotes: PBM binding z-score (relative to random genomic background probes); higher = stronger binding; sequences stand for … in GC…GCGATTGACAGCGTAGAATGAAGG
List of PBM binding z-score values.
Answer field: number only, no words.

Example entries and their recorded answers appear below.
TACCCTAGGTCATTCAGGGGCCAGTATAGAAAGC ... 0.64
ATCGAAAGGTCATGAGGTGAGTATACAGAAAGGC ... 3
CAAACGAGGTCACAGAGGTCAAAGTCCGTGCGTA ... 5.12

q: API: value(readout= PBM binding z-score, system= PPARg DBDmut IVT, anti-PPARg (DBD mutation: PPARg1 K132A/R137A, NR concentration 270 nM), query= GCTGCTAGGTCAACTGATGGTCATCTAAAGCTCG )
a: 0.14

q: And what about the sequence GCTTACAGGTCAAAGGTTATAGCATGAATAGAAT ?
a: 3.43

q: And what about the sequence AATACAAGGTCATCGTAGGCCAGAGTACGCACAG ?
a: 1.37
